Would you kindly list Zeta potential (mV) for each of these compounds?
# TEST_SUMMARY: Potential characterization of nucleic acid lipid nanoparticle preparations
# Assay type: physicochemical
# CONDITION_SET: DMG-PEG2000:DSPC:Chol:compound 1.40:11.15:38.95:48.50, N/P 30
# Experimental: 20 μL of the nucleic acid lipid nanoparticle solution (containing about 0.04 mg/mL mRNA) was taken and added with 780 μL of ultrapure water, used a pipette tip to gently blow and mix, and the potential of the nanopreparation was detected by Malvern particle sizer (model ZEN3700). 27.5 μL nucleic acid lipid nanoparticle solution (containing about 0.04 mg/mL mRNA) was taken and added with 200 μL ultrapure water. A pipette tip was used to gently blow the sample and mix well. […]

CCCCCCC(CCCCCC)C(=O)OCCCCCCOC(=O)C(O)CN(CCN(C)CCN(CC(O)C(=O)OCCCCCCOC(=O)C(CCCCCC)CCCCCC)CC(O)C(=O)OCCCCCCOC(=O)C(CCCCCC)CCCCCC)CC(O)C(=O)OCCCCCCOC(=O)C(CCCCCC)CCCCCC (centres unmarked)
4.21 mV
CCCCCCCCCCCCCCOC(=O)C(O)CN(CCN(C)CCN(CC(O)C(=O)OCCCCCCCCCCCCCC)CC(O)C(=O)OCCCCCCCCCCCCCC)CC(O)C(=O)OCCCCCCCCCCCCCC (centres unmarked)
19.13 mV
CCCCCCCCCCOC(=O)C(O)CN(CCN(C)CCN(CC(O)C(=O)OCCCCCCCCCC)CC(O)C(=O)OCCCCCCCCCC)CC(O)C(=O)OCCCCCCCCCC (centres unmarked)
28.07 mV
CCCCCCOC(C)OCCCCCCOC(=O)C(O)CN(CCCN(CC(O)C(=O)OCCCCCCOC(C)OCCCCCC)CC(O)C(=O)OCCCCCCOC(C)OCCCCCC)CCCN(CC(O)C(=O)OCCCCCCOC(C)OCCCCCC)CC(O)C(=O)OCCCCCCOC(C)OCCCCCC (centres unmarked)
4.11 mV
CCCCCCC(CCCCCC)C(=O)OCCCCCCOC(=O)C(O)CN(C)CCN(C)CCN(C)CC(O)C(=O)OCCCCCCOC(=O)C(CCCCCC)CCCCCC (centres unmarked)
15.07 mV
CCCCCCCCCCOC(=O)C(O)CN(C)CCCN(C)CCCN(C)CC(O)C(=O)OCCCCCCCCCC (centres unmarked)
12.5 mV
CCCCCCCCC(CCCCCC)C(=O)OCCCCCCOC(=O)C(O)CN(CCCN(C)CCCN(CC(O)C(=O)OCCCCCCOC(=O)C(CCCCCC)CCCCCCCC)CC(O)C(=O)OCCCCCCOC(=O)C(CCCCCC)CCCCCCCC)CC(O)C(=O)OCCCCCCOC(=O)C(CCCCCC)CCCCCCCC (centres unmarked)
10.63 mV
CCCCCCC(CCCCCC)C(=O)OCCCCOC(=O)C(O)CN(CCCN(C)CCCN(CC(O)C(=O)OCCCCOC(=O)C(CCCCCC)CCCCCC)CC(O)C(=O)OCCCCOC(=O)C(CCCCCC)CCCCCC)CC(O)C(=O)OCCCCOC(=O)C(CCCCCC)CCCCCC (centres unmarked)
9.23 mV

Count: 5. Required value per item: Zeta potential (mV).
1. CCCCCCCCCCCCNCC(O)CN(CCCCCN(C)CCCCCN(CC(O)CNCCCCCCCCCCCC)CC(O)C(=O)NCCCCCCCCCCCC)CC(O)C(=O)NCCCCCCCCCCCC (centres unmarked)
2. CCCCCCCCC(CCCCCC)C(=O)OCCCCCCOC(=O)C(O)CN(C)CCN(C)CCN(C)CC(O)C(=O)OCCCCCCOC(=O)C(CCCCCC)CCCCCCCC (centres unmarked)
3. CCCCCCCC/C=C\CCCCCCCCNC(=O)C(O)CN(CCCN(C)CCCN(CC(O)C(=O)NCCCCCCCC/C=C\CCCCCCCC)CC(O)C(=O)NCCCCCCCC/C=C\CCCCCCCC)CC(O)C(=O)NCCCCCCCC/C=C\CCCCCCCC (centres unmarked)
4. CCCCCCCCCCCCNC(=O)C(O)CNCCCN(C)CCCN(CC(O)C(=O)NCCCCCCCCCCCC)CC(O)C(=O)NCCCCCCCCCCCC (centres unmarked)
5. CCCCCCCCCCNC(=O)C(O)CN(CCCN(CCCN(CC(O)C(=O)NCCCCCCCCCC)CC(O)C(=O)NCCCCCCCCCC)C(CO)CO)CC(O)C(=O)NCCCCCCCCCC (centres unmarked)

## Result
12.97 mV
13.33 mV
13.53 mV
12.50 mV
14.13 mV

Noted for CCCC/C=C\CCOCOCCCCOC(=O)C(O)CN(CCN(C)CCN(CC(O)C(=O)OCCCCOCOCC/C=C\CCCC)CC(O)C(=O)OCCCCOCOCC/C=C\CCCC)CC(O)C(=O)OCCCCOCOCC/C=C\CCCC (centres unmarked) : its Zeta potential (mV) reads 14.07 mV
